Here, each record is paired with measured azocasein: fraction of residual enzyme activity data.
target: Recombinant human cathepsin K (Homo sapiens, UniProt P43235); construct: made in house; assay: Azocasein degradation assays; format: biochemical; settings: value of 1 equals the activity of unmodified enzyme; activity modification matrix
Sequence (P43235 115-329): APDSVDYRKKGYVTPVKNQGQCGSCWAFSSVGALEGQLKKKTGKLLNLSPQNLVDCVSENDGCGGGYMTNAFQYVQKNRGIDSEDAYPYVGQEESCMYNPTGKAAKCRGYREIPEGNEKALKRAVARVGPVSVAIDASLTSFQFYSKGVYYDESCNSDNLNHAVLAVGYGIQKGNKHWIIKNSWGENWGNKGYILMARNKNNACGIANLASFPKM
Quantity kind: azocasein: fraction of residual enzyme activity

>>> numeric_result("COC(=O)CNC1CC(=O)N(c2ccc(OC)cc2)C1=O (stereo not shown) [Compound 8]")
1.04
>>> numeric_result("Nc1cc(C(=O)O)ccc1NCC1CCCO1 (stereo not shown) [Compound 1]")
0.74
>>> numeric_result("O=C(O)c1ccccc1C(=O)Nc1cccc([N+](=O)[O-])c1 [Compound 7, 2-[(3-Nitrophenyl)carbamoyl]benzoic acid]")
1.01
>>> numeric_result("NCC1CCN(CCc2ccccc2)CC1 [Compound 6]")
0.77
